assay: soluble on expression in E. coli; label from the status in PepcDB or PDB records
reported endpoint: soluble on expression in E. coli

Use the examples below as a reference point.
DKDNPKGLPMLSVDEPTLTMDFMVNTSPLAGTEGKFVTSRQIRDRLQKELLTNVALRVEDTADADVFRVSGRGELHLTILLENMRREGYELAVGKPRVVYRDIDGQKCEPYENLTVDVPDDNQGAVMEELGRRRGELTNMESDGNGRTRLEYHIPARGLIGFQGEFMTLTRGVGLMSHVFDDYAPVKPDMPGRHNGVLVSQEQGEAVAYALWNLEDRGRMFVSPNDKIYEGMIIGIHSRDNDLVVNPLKGKKLTNIRASGTDEAVRLTTPIKLTLEGAVEFIDDDELVEITPQSIRLRKRYLSELERRRHFKKLD : not soluble
MGKKPVVIGVAGGSGSGKTSVARAIYDHFGDHSILVLEQDFYYKDQSHLPFEERLKTNYDHPLAFDNDLLIEHIHKLLRYEPIDKPVYDYTLHTRSSDVIRVEPKDVIIVEGILVLEDERLRNLMDIKVYVDTDPDIRIIRRLIRDMKERGRTFDSVIEQYLSVVRPMHNQFVEPTKRYADVIIPEGGQNVVAIDLMVAKIRTVLEQKAVL : not soluble
MGSDKIHHHHHHMPWLRFCDRDRSVHMLVAMLDLTREKAEQVMRRGPWLASMTEPFRTELLRHAHLQKFAPDQVVYRHGDAVGGMYGLVAGSLTINSAPPDAASRLIHLGMPGAWTGEGPFLTGQPRRVELRALGGAWMMHVPLDALEQMMARDPGVSRAIAMNTVFTVDVLLRIIHDLQKRAVGRRIASVLQRASWVGDMPIPLSQTDLGIMANASRQQVNTAMQRFARAGWVSYTYRSVTVSNSQALRRFSEGDGSEW : not soluble
MMSSNQQPVVLGKLGSCHGIKGWLKITAYTDSVEGIFDYSPWLIKENGEWREVKVIQWRYQGKAVVAELEGVTTRERAQMLTNCEIGILPQQMNALPEDEFYWRDLIGCEVINTTGYNMGIVDQIVETGSNDVLLVKANAKDSFGKVERMVPFVPGQFILKVDVQGKQILVDWDPDFLEHHHHHH : soluble
MVFFTCNACGESVKKIQVEKHVSNCRNCECLSCIDCGKDFWGDDYKSHVKCISEGQKYGGKGYEAK : soluble

Could you tell me soluble on expression in E. coli for each of these sequences? They are listed below.
1. MSLTSHLLKAEIHCHLEGAAPPALVVKQAEKYGIDTSGFLRDGQYVWSDFAEFIQCYDAVAQVFKSDEDYAVLTETYLTELAEANTIYSELIISPDHGDRIGLGADAYLAGVAEGIRIAKEKTGIETRIIVTGERHFGPERVIAAAEYAARIRHPLVTGFNMAGEERMGRVADYARAFDIARDAGLGLTIHAGEVCGPESVADALDLVKPSRIGHGVRAIEDAALISRLVETGTVLEVCPGSNIALSVYPDFASHPLKALSDAGVRVCISSDDPPFFFTSLAREYALAADAFGFNDAEINRMTRTALECAFVDEATRERLLARLGDAEGHHHHHH
2. MAHHHHHHMLKFFTEKANHQALKAVLCAVFVQKPLEVTLGSTYSTPYLQLPKSRALLYSCNEAARLIWSTHAAPLPADNSLEGEAEWLEWESTVLTPALTPLYTHRRITGEAEAALKKLDSTIEEHQGTVAVKGAPSSTSFLVDSVLFASLLPALCEGGLLPAAQAARVPHLVKWFQAFQAEHAELIASAFDVLSVQECGDFLRVP
3. MKTTPIPLRRDIILDGKWCAAMLKELESLYEGDIVINGQPEHPEDYEWFYTADGDEIGIAKHRLTEQERRLLALFFTPAERRREPESEEERAWKRWMATGDPAALARLAAPYCRFIHFTASRPIANKEEFADAVRGLFSSPVAIVWEQDRRGLIVEAKQKRTTEPPSLADMAEALAADFYTALHLLIGPIRSVDERLYESFLLEKECFSAARRFWPKRTVYEWEDVIPLPLFEEGAVSEKARRTLSFLDGFDEEEVRAMETFLQCNLNVSMAAKKLYMHRNSLQYRIDKWAEQTGVDIKRFKGAAAVYLAILHRRRS
4. MRYTGYMMEVRQLRHFVTVAEWESFTLAAQQLHIAQPALSISIKKFEQQLGVTLFKRDERKVALTHEGEVLLEHAKRILQQVNDAQLAVDELKGVVKGEVRLGAPSMMGSYFFPQIIMAFKSHFPNLKMTVIEAGTQSIRRMLLSGELDIGVILNHDLPDDLAADPLLSSQMVAVVGKNHELAERRHLTFAEFFEHELVMFKPGYFHRDFIDKVCREHKFTADFSFETNLLPMILSIVKHEYAITALLELVTSNEPEVKAIPFEPPVWLDLALAWRKEGYLSNADRTFIEFVKKYV
5. MSDNAQLSGLCDRFRGFYPVVIDVETAGFNAKTDALLEIAAITLKMDEQGWLMPDMTLHFHVEPFAGANLQPEALAFNGIDPSNPLRGAVSEYEALHAIFKMVRKGIKDSGCSRAIMVAHNATFDHSFMMAAAERASLKRNPFHPFVTFDTAALSGLALGQTVLSKACLAAGMEFDGEKAHSALYDTERTAVLFCEIVNRWKRLGGWPLPLPTDK

soluble
soluble
not soluble
not soluble
not soluble

Could you tell me soluble on expression in E. coli for each of these sequences? They are listed below.
1. VSLDKKLMPVPDGHPDVFDREWPLRVGDIDRAGRLRLDAACRHIQDIGQDQLREMGFEETHPLWIVRRTMVDLIRPIEFGDMLRCRRWCSGTSNRWCEMRVRVDGRKGGLIESEAFWIHVNRETEMPARIADDFLAGLHRTTSVDRLRWKGYLKPGSRDDASEIHEFPVRVTDIDLFDHMNNAVYWSVIEDYLASHAELLRGPLRVTIEHEAPVALGDKLEIISHVHPAGSTEIFGPGLVDRAVTTLTYVVGDEPKAVASLFNL
2. ASMTGGQQMGRILVAVLISGTGSNLQALIDSTREPNSSAQIDIVISNKAAVAGLDKAERAGIPTRVINHKLYKNRVEFDSAIDLVLEEFSIDIVCLAGFMRILSGPFVQKWNGKMLNIHPSLLPSFKGSNAHEQALETGVTVTGCTVHFVAEDVDAGQIILQEAVPVKRGDTVATLSERVKLAEHKIFPAALQLVASGTVQLGENGKICWVKEEPLEHHHHHH

soluble
soluble

* * *

assay: soluble on expression in E. coli; label from the status in PepcDB or PDB records
reported endpoint: soluble on expression in E. coli

STATIDRRLSTLNPNAPVFDPVEFREVEDFSPKWWDLVTTSKWFRDFWLSANSENEFLGGDDFSVMEEEFEEMIASSDGGSMADTVTEADVASYLKMLLNIAESTKEKIYRSKVSSCSPKYNQKKYMNPNFNCRRNHHIYQPR : soluble
MTKNPRNNKPKKILDSSYKSKTIWQNYIDALFETFPQLEISEVWAKWDGGNVTKDGGDAKLTANIRTGEHFLKAREAHIVDPNSDIYNTILYPKTGADLPCFGMDLMKFSDKKVIIVFDFQHPREKYLFSVDGLPEDDGKYRFFEMGNHFSKNIFVRYCKPDEVDQYLDTFKLYLTKYKEMIDNNKPVGEDTTVYSDFDTYMTELDPVRGYMKNKFGEGRSEAFVNDFLFSYK : soluble

* * *

assay: soluble on expression in E. coli; label from the status in PepcDB or PDB records
reported endpoint: soluble on expression in E. coli

MAHHHHHHMNINKILFSKVGEVVKNGNGGMNMQQGASQLLSGKKLIYISKPTHGGFIYWKCRELIHTIKKKTKRCARYLDINHDFSRAALVGVPKTSYDPKNNIFYIQMDNEEWAGNFYKNGPSGVLMWGVMFFAKVCKMGKNALHTIRAAPFGRFAE : not soluble
MIKKAFCMQVYPDQHAEYQRRHEKLWPEMRQMLKEHGAIKYQIFLNPETSTLFGYLEIEDEARWEQIALTPINQKWWNYMEDIMETNPDCSPMTAELKKVFEL : not soluble
GPGSMMEYADAYVGGGGRLRPGAQGSTTATGASRPYLEQRTVAPVTSALGQELDRLVGGTLAAQEYRDRLEALTRSVQASDEKVLNLTRLVKLSQSIQEEKEADLRRQNDELRARLKRQEQLTAQLQRQLEGMQGAVDAQALHHVVERLEGQMSACRGKQEEQWVAVQQRIGELEDRLQRASTCTAERCEERLMQLDERLQQVTQSTADATNQWAKRNFVRFKEQVDSLRADLDDVRGGQKELKSTVQSASCRAEIEYKKVLLLLQQKTKEADALTSLVEKELQHLQKVAHRHQILASKDITPAFEFDEKPYDALKFAAGEGKRRGAEAAAERRRR : not soluble
MSLEEATVEDIMIPRTEIVGIDLDDPWSETLERLTNSQYTRMPVYRGTVDHVMGFVHVRRIVGDLVRGNFTPEDLQARLKEPFFIPEGTGLHTQLLKFQRQRERVGLVVDEYGEILGLAALDDILEEIVGEFTTDPGTLTRSINRQDDGTYLVEGSATVRELNRVLGWELETSGPKTLNGLILERLETIPEAGTSLLIDGYPVTIVQTQGNRVKTAEIQPERPPSVQREGHHHHHH : soluble
MSLRNVLQDYLDEHSFRVVVKKKKNYLTYEGLQDRYAYILKSGIIKTSVISKDGREFNLRYINNLEIVSLLRDEYSEFIDAPFNIRIESPQAELYQIDRVQFWRDINNSKDLQMYVKEYYRDRLMHSMKKMQQMLMNGKFGAVCTQIYEMYDSFGVETEEGILIDFVVTNEEIAHFCGITSASSVNRMMQQLKELGAIELRNRKILIKDLDMIRDNEGGSHHHHHH : soluble
GSFIDIEFPEWFHEGLSRHQAENLLMGKDIGFFIIRASQSSPGDFSISVRHEDDVQHFKVMRDTKGNYFLWTEKFPSLNKLVDYYRTTSISKQKQVFLRD : soluble

# evaluate next
For the sequence shown here, MSLRQRFVLDTTAITDAGLRIKEGYESLCESAAEVLDLIALARLKLDISCYIPYPSVYTELTSFLKRYGCDEEIFTKLDTWLVKKTPNRYEVKIPAAIFYEYIITVRQKMNRGRRLAEEYILESSAITAKLEDKSKIEEEIGALISKFRDKYRAVMRQGILDSAPDLDVLLLAKELEAGVVSSDAGIRKWSERLGLRFVEAAKFPRMLKEYLKLMGSKDIVGWFESEEDEGHHHHHH , give the reported soluble on expression in E. coli.
not soluble
